Biological target: α5β1 integrin (Homo sapiens, UniProt P05556+P08648)
Sequence (P08648 42-894 limits assumed): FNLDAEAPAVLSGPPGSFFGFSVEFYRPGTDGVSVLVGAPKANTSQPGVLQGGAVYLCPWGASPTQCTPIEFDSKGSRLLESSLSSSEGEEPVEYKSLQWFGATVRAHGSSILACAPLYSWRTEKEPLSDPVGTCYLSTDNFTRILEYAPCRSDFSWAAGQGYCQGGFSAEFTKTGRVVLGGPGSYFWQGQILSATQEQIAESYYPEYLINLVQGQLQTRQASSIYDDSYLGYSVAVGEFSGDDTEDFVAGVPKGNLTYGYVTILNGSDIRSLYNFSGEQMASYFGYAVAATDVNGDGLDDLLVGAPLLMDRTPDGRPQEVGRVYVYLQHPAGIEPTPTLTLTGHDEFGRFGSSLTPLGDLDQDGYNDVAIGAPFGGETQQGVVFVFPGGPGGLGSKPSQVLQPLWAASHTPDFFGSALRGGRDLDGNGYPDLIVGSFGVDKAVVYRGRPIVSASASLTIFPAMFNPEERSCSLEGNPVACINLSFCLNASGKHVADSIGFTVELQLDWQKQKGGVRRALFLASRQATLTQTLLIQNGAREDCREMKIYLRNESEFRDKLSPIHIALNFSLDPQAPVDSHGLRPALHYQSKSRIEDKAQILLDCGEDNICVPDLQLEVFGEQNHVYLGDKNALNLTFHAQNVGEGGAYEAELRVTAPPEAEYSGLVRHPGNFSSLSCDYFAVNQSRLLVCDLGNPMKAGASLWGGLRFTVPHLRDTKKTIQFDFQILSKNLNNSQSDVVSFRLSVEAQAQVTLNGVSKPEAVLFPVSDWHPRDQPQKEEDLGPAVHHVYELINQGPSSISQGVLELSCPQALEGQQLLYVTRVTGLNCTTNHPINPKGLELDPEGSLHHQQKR
Sequence (P08648 895-1049 partner limits assumed): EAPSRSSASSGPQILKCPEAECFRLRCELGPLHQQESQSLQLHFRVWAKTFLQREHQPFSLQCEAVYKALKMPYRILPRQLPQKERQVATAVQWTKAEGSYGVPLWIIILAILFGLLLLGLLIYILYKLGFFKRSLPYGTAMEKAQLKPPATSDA
Sequence (P05556 21-798): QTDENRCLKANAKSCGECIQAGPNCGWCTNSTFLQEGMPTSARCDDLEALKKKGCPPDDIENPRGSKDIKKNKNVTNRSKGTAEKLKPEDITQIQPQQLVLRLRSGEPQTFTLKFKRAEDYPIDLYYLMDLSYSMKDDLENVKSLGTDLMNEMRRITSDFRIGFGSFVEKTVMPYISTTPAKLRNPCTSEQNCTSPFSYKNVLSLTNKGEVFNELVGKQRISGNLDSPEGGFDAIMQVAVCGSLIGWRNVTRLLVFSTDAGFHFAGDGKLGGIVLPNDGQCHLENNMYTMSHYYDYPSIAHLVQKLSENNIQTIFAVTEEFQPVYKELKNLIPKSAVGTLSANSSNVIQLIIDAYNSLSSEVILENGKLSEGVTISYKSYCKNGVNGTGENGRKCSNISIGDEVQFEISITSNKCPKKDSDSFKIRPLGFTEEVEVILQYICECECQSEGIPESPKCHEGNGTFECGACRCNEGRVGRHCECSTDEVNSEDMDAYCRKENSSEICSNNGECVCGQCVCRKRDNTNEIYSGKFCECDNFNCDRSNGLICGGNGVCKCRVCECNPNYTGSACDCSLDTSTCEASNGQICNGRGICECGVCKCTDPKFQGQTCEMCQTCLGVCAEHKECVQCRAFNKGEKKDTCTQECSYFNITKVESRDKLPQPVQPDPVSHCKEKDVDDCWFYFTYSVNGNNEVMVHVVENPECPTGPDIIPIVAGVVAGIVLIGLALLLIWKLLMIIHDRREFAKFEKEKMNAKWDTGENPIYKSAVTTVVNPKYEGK
Assay: Cell adhesion assay: K562 cells to immobilized fibronectin (α5β1 integrin-mediated)
result.type: EC50 (µM)
Report the value in µM with no unit label.

Reported EC50, molecule CC1=C(C(=O)NCc2ccc(N)cc2)C(CCCc2cn(CCCNC(=O)CCC(=O)OC(C)(C)C)nn2)N(C(=O)CC(=O)O)O1 (stereo not shown) : ____
6.59

====

Please provide measured IC50 for the entries that follow.
Molecular target: α5β1 integrin (Homo sapiens, UniProt P05556+P08648)
Assay: Cell adhesion assay: K562 cells to immobilized fibronectin (α5β1 integrin-mediated)

Reported IC50, compound CCOC(=O)CCCCn1cc(CCCC2C(C(=O)NCc3ccc(N)cc3)=C(C)ON2C(=O)CC(=O)O)nn1 (stereo not shown) [Compound 26] : ____
> 1000 µM

Reported IC50, compound CC1=C(C(=O)NCc2ccc(N)cc2)C(CCCc2cn(CCCNC(=O)OC(C)(C)C)nn2)N(C(=O)CC(=O)O)O1 (stereo not shown) [Compound 17b] : ____
0.0027 µM

Reported IC50, compound CC1=C(C(=O)NCc2ccc(N)cc2)C(CCCc2cn(CC(=O)OC(C)(C)C)nn2)N(C(=O)CC(=O)O)O1 (stereo not shown) [Compound 20a] : ____
> 1000 µM

Reported IC50, compound CC1=C(C(=O)NCc2ccc(N)cc2)C(CCCc2cn(CCC(=O)OC(C)(C)C)nn2)N(C(=O)CC(=O)O)O1 (stereo not shown) [Compound 20b] : ____
> 1000 µM

====

Target: αvβ3 integrin (Homo sapiens, UniProt P05106+P06756)
Sequence (P06756 31-889 limits assumed): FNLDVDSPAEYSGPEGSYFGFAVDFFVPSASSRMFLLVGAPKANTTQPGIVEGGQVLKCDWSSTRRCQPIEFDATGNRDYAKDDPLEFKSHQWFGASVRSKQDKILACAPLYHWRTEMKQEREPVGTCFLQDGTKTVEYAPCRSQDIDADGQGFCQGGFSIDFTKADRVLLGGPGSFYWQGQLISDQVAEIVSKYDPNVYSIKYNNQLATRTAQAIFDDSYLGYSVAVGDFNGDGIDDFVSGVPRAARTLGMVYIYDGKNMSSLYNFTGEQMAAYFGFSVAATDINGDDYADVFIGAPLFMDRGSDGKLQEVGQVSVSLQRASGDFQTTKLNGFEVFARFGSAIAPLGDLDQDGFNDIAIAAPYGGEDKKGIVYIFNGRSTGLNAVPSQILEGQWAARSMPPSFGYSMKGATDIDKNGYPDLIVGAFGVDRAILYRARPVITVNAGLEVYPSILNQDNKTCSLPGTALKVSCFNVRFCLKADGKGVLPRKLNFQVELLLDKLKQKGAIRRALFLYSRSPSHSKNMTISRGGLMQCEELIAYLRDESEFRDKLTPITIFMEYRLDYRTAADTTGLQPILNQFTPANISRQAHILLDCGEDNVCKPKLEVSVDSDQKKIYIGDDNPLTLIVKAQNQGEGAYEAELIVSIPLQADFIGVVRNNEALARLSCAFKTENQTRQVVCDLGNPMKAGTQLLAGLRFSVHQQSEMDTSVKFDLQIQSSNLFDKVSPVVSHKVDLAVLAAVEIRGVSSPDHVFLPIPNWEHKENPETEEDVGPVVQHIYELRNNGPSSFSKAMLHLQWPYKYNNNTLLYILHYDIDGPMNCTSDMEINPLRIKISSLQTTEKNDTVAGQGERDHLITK
Sequence (P06756 891-1048 partner limits assumed): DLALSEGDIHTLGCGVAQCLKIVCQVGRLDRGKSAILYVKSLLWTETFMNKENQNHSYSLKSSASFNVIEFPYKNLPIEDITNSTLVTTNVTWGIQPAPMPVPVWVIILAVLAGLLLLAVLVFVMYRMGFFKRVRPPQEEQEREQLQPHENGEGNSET
Sequence (P05106 27-788): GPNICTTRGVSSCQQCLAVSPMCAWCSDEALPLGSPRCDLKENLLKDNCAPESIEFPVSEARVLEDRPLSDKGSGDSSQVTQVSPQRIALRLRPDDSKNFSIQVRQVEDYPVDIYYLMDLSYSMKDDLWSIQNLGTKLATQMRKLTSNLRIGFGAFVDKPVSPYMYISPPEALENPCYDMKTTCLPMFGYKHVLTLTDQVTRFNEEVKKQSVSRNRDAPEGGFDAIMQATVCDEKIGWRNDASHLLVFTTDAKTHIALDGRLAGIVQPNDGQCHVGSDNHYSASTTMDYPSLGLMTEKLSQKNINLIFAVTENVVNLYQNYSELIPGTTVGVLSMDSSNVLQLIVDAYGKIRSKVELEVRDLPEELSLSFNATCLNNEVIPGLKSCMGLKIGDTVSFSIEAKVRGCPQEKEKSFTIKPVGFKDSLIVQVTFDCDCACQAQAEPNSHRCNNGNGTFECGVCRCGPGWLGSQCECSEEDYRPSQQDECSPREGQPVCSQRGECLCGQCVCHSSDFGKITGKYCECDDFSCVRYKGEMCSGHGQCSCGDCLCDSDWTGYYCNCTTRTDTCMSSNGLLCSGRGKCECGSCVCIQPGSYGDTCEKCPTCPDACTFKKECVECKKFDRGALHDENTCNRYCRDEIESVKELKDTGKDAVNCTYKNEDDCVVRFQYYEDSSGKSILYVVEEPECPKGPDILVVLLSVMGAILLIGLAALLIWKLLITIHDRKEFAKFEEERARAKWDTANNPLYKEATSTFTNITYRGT
Experiment: Cell adhesion assay: SK-MEL-24 cells to immobilized fibronectin (αvβ3 integrin-mediated)
Details: SK-MEL-24 cell adhesion to fibronectin
result.type: αvβ3 behaviour (agonist/antagonist)

Solved entries:
INSERT INTO measurements (compound, measurement) VALUES
  ('C#CCCCC1C(C(=O)NCc2ccc(N)cc2)=C(C)ON1C(=O)CC(=O)O (stereo not drawn)', 'agonist'),
  ('CC1=C(C(=O)NCc2ccc(N)cc2)C(CCCc2cn(CC(=O)OC(C)(C)C)nn2)N(C(=O)CC(=O)O)O1 (stereo not drawn) [Compound 20a]', 'agonist'),
  ('CC1=C(C(=O)NCc2ccc(N)cc2)C(CCCc2cn(CCNC(=O)OC(C)(C)C)nn2)N(C(=O)CC(=O)O)O1 (stereo not drawn) [Compound 17a]', 'antagonist'),
  ('CCOC(=O)CCCCn1cc(CCCC2C(C(=O)NCc3ccc(N)cc3)=C(C)ON2C(=O)CC(=O)O)nn1 (stereo not drawn)', 'agonist'),
  ('CC1=C(C(=O)NCc2ccc(N)cc2)C(CCCc2cn(CCC(=O)OC(C)(C)C)nn2)N(C(=O)CC(=O)O)O1 (stereo not drawn) [Compound 20b]', 'agonist');

As a next step, examine the compound that follows.
Reported αvβ3 behaviour (agonist/antagonist), compound CC1=C(C(=O)NCc2ccc(N)cc2)C(CCCc2cn(CCOCCOCCNC(=O)OC(C)(C)C)nn2)N(C(=O)CC(=O)O)O1 (stereo not drawn) : ____
antagonist

====

Target: αvβ3 integrin (Homo sapiens, UniProt P05106+P06756)
Experiment: Cell adhesion assay: SK-MEL-24 cells to immobilized fibronectin (αvβ3 integrin-mediated)
result.type: IC50 (µM)
Report the value in µM with no unit label.

Hi! What's the reported IC50 for CC1=C(C(=O)NCc2ccc(N)cc2)C(CCCc2cn(CCOCCOCCNC(=O)OC(C)(C)C)nn2)N(C(=O)CC(=O)O)O1 (centres unmarked) [Compound 28] on αvβ3 integrin (Homo sapiens, UniProt P05106+P06756)?
8.84

Hi! What's the reported IC50 for CC1=C(C(=O)NCc2ccc(N)cc2)C(CCCc2cn(CCNC(=O)OC(C)(C)C)nn2)N(C(=O)CC(=O)O)O1 (centres unmarked) [Compound 17a] on αvβ3 integrin (Homo sapiens, UniProt P05106+P06756)?
0.88
